Target: T1, human PVRIG-mFc protein (Acro, PVG-H5253) (human, UniProt Q6DKI7 41-171, limits assumed)
T1 construct: extracellular domain; Bought protein; also called PVRIG-ECD-mFc; not shown: mouse Fc tag of the bought protein
T1 sequence (looked up): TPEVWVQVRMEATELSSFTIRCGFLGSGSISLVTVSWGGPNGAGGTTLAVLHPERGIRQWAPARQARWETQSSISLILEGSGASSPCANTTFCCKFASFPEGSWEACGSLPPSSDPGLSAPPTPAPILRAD
Experiment: FACS blocking of PVRIG-mFc binding to CHO-K1-CD112 cells; competitor CD112
For each record, write down the corresponding % IC50 to COM701-hIgG4.
The reply should contain only the number, in %.

Query: Request the reported % IC50 to COM701-hIgG4 associated with PVRIG-A118 (Fc fusion, Alpaca VHH expressed as VHH-hinge-CH2-CH3 of human IgG1; not shown: human IgG1 hinge-CH2-CH3 (Fc)) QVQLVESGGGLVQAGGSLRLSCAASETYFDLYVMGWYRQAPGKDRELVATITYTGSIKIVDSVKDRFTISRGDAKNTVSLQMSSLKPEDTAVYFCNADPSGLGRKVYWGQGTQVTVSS
Response: 141

Query: Request the reported % IC50 to COM701-hIgG4 associated with PVRIG-A50-H2a (Fc fusion, VHH-human IgG1 Fc format is stated for the parental VHH antibodies; not restated for the humanized variants; also called A50.VH2a; not shown: human IgG1 hinge-CH2-CH3 (Fc)) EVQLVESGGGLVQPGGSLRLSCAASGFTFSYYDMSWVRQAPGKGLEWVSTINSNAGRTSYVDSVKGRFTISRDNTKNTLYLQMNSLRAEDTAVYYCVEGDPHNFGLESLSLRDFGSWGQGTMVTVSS
Response: 118

Query: Request the reported % IC50 to COM701-hIgG4 associated with PVRIG-A50-H1a (Fc fusion, VHH-human IgG1 Fc format is stated for the parental VHH antibodies; not restated for the humanized variants; also called A50.VH1a; not shown: human IgG1 hinge-CH2-CH3 (Fc)) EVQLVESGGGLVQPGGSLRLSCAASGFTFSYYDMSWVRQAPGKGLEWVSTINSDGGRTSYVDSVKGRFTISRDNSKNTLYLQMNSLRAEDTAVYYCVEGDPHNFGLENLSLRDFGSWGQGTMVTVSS
Response: 120

Query: Request the reported % IC50 to COM701-hIgG4 associated with PVRIG-A105-H3 (Fc fusion, VHH-human IgG1 Fc format is stated for the parental VHH antibodies; not restated for the humanized variants; also called A105.VH3; not shown: human IgG1 hinge-CH2-CH3 (Fc)) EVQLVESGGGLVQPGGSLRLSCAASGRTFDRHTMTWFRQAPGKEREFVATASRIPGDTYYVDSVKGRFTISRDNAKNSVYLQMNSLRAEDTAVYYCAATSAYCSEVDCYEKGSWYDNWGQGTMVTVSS
Response: 109
